Measured IC50 by item
Biological target: sodium-proton exchanger of subtype 3 (NHE3) (Homo sapiens)
Construct: expressed in transfected cells
Sequence (P48764 26-834): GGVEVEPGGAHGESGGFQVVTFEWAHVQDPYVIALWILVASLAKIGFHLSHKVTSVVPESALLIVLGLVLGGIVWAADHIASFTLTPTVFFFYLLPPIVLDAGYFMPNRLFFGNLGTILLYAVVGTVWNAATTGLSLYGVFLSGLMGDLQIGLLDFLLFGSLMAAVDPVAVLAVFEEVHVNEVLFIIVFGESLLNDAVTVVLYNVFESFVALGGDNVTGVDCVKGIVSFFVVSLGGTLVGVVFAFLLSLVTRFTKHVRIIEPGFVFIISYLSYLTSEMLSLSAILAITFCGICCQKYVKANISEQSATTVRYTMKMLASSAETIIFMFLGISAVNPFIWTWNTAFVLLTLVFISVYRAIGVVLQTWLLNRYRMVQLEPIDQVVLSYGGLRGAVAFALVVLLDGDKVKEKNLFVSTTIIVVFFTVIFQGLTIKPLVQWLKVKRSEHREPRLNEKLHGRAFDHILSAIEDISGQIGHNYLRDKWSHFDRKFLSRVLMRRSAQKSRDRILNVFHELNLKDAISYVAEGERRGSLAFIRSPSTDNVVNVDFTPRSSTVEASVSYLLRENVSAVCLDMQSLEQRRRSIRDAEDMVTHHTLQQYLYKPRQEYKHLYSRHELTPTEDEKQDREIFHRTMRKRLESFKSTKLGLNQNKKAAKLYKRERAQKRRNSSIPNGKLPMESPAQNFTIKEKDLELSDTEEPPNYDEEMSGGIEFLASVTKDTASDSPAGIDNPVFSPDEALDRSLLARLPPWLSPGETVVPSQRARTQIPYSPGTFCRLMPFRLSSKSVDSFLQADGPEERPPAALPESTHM
Assay: Recovery of intracellular pH (pHi) after acidification in LAP1 cells stably expressing NHE3 (BCECF fluorescence, FLIPR)
Type: cell-based
Conditions: LAP1 cells stably expressing NHE3; pH recovery after acidification; range 1 is % inhibition at 10 μM; read-out: Activity range (inhibitory effect on NHE3)

NC(=O)c1ccc(O[C@@H]2c3ccccc3C[C@H]2N2CCC[C@@H](N)C2)cc1 (racemic) [Example 525] : 1000 to 10000 nM

Continue with the compound presented below.
Could you please provide reported IC50 for "Cc1cn(-c2ccc(O[C@H]3c4cc(Cl)cc(F)c4C[C@@H]3N3CC[C@@H](O)C3)c(F)c2)c(C)n1" ? Thanks!
< 1000 nM
